- experimental_target: T1, serum purified human Complement Factor D (human, UniProt P00746 26-253)
- T1 construct: Serum purified protein flowed over the captured antibodies; also called CFD; human CFD
- T1 sequence (P00746 26-253): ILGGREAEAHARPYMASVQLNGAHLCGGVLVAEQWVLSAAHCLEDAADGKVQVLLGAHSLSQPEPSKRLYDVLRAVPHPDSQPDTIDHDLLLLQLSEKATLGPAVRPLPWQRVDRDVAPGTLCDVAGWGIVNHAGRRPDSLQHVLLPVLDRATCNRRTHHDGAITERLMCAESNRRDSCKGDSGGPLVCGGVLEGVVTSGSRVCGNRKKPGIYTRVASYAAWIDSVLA
- procedure_text: SPR Biacore, 25 C
measurement_kind: kon
The answer should read as a number with its unit following.

Query: kon; subject: 54I59D / 54R101V (antibody, V domains shown, KCD119 TAF variant) VH: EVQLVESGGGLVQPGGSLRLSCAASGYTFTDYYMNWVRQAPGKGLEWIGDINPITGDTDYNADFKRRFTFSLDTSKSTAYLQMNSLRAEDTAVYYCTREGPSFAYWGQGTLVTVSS VL: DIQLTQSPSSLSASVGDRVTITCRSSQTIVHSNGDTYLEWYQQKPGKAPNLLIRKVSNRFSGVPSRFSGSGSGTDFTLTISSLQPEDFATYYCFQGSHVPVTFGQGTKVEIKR
1.71e+07 M⁻¹ s⁻¹
